Entry source: paper PMC6003569

test system: HeLa cells; test: alamarBlue cell viability assay; format: cell-based, human; settings: Homo sapiens, HeLa, 72 h, HeLa, 21% O2 (normoxia), read-out: EC50
PARAMETER_MEASURED: EC50 (µM)

[1] NS(=O)(=O)c1c(F)c(F)c(SCCc2ccc(C(=O)O)cc2)c(F)c1NC1CCCCCCCCCCC1
[2] NS(=O)(=O)c1c(F)c(F)c(SCCc2ccc(C(=O)O)cc2)c(F)c1NC1CCCCCCC1
Req: For the pair 1 and 2 , which member has the lower EC50 number? Pick one; state its label.
Resp: 1

* * *

biological target: CA VA (Homo sapiens); construct: 12 recombinant catalytic domains of human active CA isoforms as determined by FTSA; experiment: Fluorescent thermal shift assay (FTSA); conditions: pH 7.0, 37° C
Sequence (P35218 39-296 limits assumed): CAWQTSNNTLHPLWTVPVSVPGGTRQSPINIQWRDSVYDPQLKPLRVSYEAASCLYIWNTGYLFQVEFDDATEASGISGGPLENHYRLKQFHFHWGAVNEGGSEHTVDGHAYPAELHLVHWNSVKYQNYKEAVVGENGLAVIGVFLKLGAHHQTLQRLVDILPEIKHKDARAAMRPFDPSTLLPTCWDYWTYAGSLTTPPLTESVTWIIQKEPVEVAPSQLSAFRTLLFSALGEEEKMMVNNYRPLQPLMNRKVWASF
PARAMETER_MEASURED: Kd (µM)
Just the number in µM, nothing appended.

Req: Please look up its Kd: "NS(=O)(=O)c1c(F)c(F)c(SCCc2ccc(C(=O)O)cc2)c(F)c1NC1CCCCCCC1"
Resp: 5

* * *

target: CA XII (Homo sapiens, UniProt O43570); construct: 12 recombinant catalytic domains of human active CA isoforms as determined by FTSA; experiment: Fluorescent thermal shift assay (FTSA); settings: pH 7.0, 37° C
Sequence (O43570 30-289 limits assumed): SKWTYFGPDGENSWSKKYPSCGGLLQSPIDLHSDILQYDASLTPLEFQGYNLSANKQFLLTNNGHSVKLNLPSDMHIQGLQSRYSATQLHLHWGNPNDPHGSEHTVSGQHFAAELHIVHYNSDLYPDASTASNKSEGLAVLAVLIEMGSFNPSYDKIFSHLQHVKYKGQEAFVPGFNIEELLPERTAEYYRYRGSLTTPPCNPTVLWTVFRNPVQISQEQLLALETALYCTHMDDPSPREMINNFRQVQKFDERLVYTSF
PARAMETER_MEASURED: Kd (nM)

[I] NS(=O)(=O)c1c(F)c(F)c(SCCc2ccc(C(=O)O)cc2)c(F)c1NC1CCCCCCC1 [VR16-10]
[II] NS(=O)(=O)c1c(F)c(F)c(SCCc2ccc(C(=O)O)cc2)c(F)c1NC1CCCCCCCCCCC1 [VR16-09]
Req: Decide: I or II , by lowest recorded Kd. Your answer should be the label attached to the chosen record.
Resp: I
(I: 370 nM, II: 710 nM)

* * *

tested on: H460 cells; assay: alamarBlue cell viability assay; format: cell-based; details: Homo sapiens, NCI-H460, 72 h, H460, 0.2% O2 (hypoxia), read-out: EC50
PARAMETER_MEASURED: pEC50
Just so you know, pEC50 here is -log10 of the concentration in molar units; reply with that number alone.

Req: // pEC50 lookup, key: "NS(=O)(=O)c1c(F)c(F)c(SCCc2ccc(C(=O)O)cc2)c(F)c1NC1CCCCCCCCCCC1"
Resp: 4.40

* * *

tested on: A549 cells; assay: alamarBlue cell viability assay; assay type: cell-based; settings: Homo sapiens, A549, 72 h, A549, 0.2% O2 (hypoxia), read-out: EC50
PARAMETER_MEASURED: EC50 (µM)
Field: numeric (µM). Do not append units.

Req: Look up EC50: NS(=O)(=O)c1c(F)c(F)c(SCCc2ccc(C(=O)O)cc2)c(F)c1NC1CCCCCCCCCCC1 [VR16-09]
Resp: 76.7

* * *

tested on: H460 cells; experiment: alamarBlue cell viability assay; format: cell-based; details: Homo sapiens, NCI-H460, 72 h, H460, 21% O2 (normoxia)
PARAMETER_MEASURED: pEC50
Field pEC50 (float): negative decimal logarithm of the concentration in molar.

Req: Given the molecule "NS(=O)(=O)c1c(F)c(F)c(SCCO)c(F)c1NC1CCCCCCC1" , what is its reported pEC50?
Resp: 4.75

* * *

test system: AsPC-1 cells; assay: alamarBlue cell viability assay; assay type: cell-based; conditions: Homo sapiens, ASPC1, 48 h, AsPC-1, 21% O2 (normoxia), read-out: EC50
PARAMETER_MEASURED: EC50 (µM)
Number in µM, nothing else.

Req: Given the entry "NS(=O)(=O)c1c(F)c(F)c(SCCc2ccc(C(=O)O)cc2)c(F)c1NC1CCCCCCCCCCC1" , what EC50 was observed with AsPC-1 cells?
Resp: 153
